Origin of values: patent US20250120927A1

Biological target: UniProtKB Q96KP4
Sequence (Q96KP4 whole entry): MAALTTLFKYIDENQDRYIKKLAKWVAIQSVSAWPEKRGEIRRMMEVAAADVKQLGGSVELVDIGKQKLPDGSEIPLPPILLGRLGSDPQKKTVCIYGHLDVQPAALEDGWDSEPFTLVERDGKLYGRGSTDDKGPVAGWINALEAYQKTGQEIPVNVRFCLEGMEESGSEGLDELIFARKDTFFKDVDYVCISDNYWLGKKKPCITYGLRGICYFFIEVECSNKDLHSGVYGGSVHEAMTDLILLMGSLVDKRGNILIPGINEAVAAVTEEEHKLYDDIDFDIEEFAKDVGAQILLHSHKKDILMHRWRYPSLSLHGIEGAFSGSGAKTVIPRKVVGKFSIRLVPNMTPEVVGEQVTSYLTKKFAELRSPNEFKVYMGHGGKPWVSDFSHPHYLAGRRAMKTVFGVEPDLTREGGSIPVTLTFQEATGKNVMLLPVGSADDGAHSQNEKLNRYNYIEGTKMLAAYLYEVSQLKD
Test: CNDP2 enzyme inhibition assay (Met-His hydrolysis, free histidine by o-phthaldialdehyde fluorescence), dose-response
Type: biochemical
Conditions: 50 nM purified CNDP2 (Sino Biological), 1 mM Met-His substrate, 30 minutes at 37° C.; TABLE 1
pIC50: −log10 of the molar value.

{"molecule": "COc1cccc(C(NC(=O)[C@@H](O)[C@H](N)Cc2ccccc2)C(=O)O)c1 (stereo partly shown)", "system under test": "UniProtKB Q96KP4", "pIC50": "≤ 6.00"}
{"molecule": "N[C@H](Cc1ccccc1)[C@H](O)C(=O)NC(C(=O)NO)c1cccc(C(F)(F)F)c1 (stereo partly shown)", "system under test": "UniProtKB Q96KP4", "pIC50": "6.00 to 7.00"}
{"molecule": "N[C@H](Cc1ccccc1)[C@H](O)C(=O)N[C@@H](Cc1ccc(O)cc1)C(=O)O", "system under test": "UniProtKB Q96KP4", "pIC50": "≤ 6.00"}
{"molecule": "COc1ccc(C[C@H](NC(=O)[C@@H](O)[C@H](N)Cc2ccccc2)C(=O)O)cc1", "system under test": "UniProtKB Q96KP4", "pIC50": "≤ 6.00"}
{"molecule": "N[C@H](Cc1ccccc1)[C@H](O)C(=O)N[C@H](C(=O)O)c1cccc(C(F)(F)F)c1", "system under test": "UniProtKB Q96KP4", "pIC50": "> 7.00"}
{"molecule": "CC(C)C[C@H](NC(=O)[C@@H](O)[C@H](N)Cc1ccc(Br)cc1)C(=O)O", "system under test": "UniProtKB Q96KP4", "pIC50": "≤ 6.00"}
{"molecule": "N[C@H](Cc1ccccc1)[C@H](O)C(=O)NC(CC1CCCC1)C(=O)O (stereo partly shown)", "system under test": "UniProtKB Q96KP4", "pIC50": "> 7.00"}
{"molecule": "CC1(C)CC(C(NC(=O)[C@@H](O)[C@H](N)Cc2ccccc2)C(=O)O)CCO1 (stereo partly shown)", "system under test": "UniProtKB Q96KP4", "pIC50": "≤ 6.00"}
{"molecule": "N[C@H](Cc1ccccc1)[C@H](O)C(=O)N[C@@H](Cc1ccc(Br)cc1)C(=O)O", "system under test": "UniProtKB Q96KP4", "pIC50": "> 7.00"}
{"molecule": "CCC(c1ccccc1)C(NC(=O)[C@@H](O)[C@H](N)Cc1ccccc1)C(=O)O (stereo partly shown)", "system under test": "UniProtKB Q96KP4", "pIC50": "≤ 6.00"}
{"molecule": "N[C@H](Cc1ccccc1)[C@H](O)C(=O)N[C@@H](Cc1ccccc1Br)C(=O)O", "system under test": "UniProtKB Q96KP4", "pIC50": "≤ 6.00"}
{"molecule": "N[C@H](Cc1ccccc1)[C@H](O)C(=O)NC(C(=O)O)C1CCNCC1 (stereo partly shown)", "system under test": "UniProtKB Q96KP4", "pIC50": "≤ 6.00"}
{"molecule": "N[C@H](Cc1ccccc1)[C@H](O)C(=O)N[C@@H](C(=O)O)c1cccc(C(F)(F)F)c1", "system under test": "UniProtKB Q96KP4", "pIC50": "≤ 6.00"}
{"molecule": "N[C@H](Cc1ccccc1)[C@H](O)C(=O)N[C@H](C(=O)O)C1CCC(F)(F)CC1", "system under test": "UniProtKB Q96KP4", "pIC50": "6.00 to 7.00"}
{"molecule": "N[C@H](Cc1ccccc1)[C@H](O)C(=O)N[C@@H](Cc1ccc(F)cc1)C(=O)O", "system under test": "UniProtKB Q96KP4", "pIC50": "≤ 6.00"}
{"molecule": "N[C@H](Cc1ccccc1)[C@H](O)C(=O)NC(CC1CCOCC1)C(=O)O (stereo partly shown)", "system under test": "UniProtKB Q96KP4", "pIC50": "> 7.00"}
